Numbers sourced from paper PMC2907420.

# assay_target: glycated HSA (gHSA1) (Homo sapiens)
# Sequence (P02768 25-609): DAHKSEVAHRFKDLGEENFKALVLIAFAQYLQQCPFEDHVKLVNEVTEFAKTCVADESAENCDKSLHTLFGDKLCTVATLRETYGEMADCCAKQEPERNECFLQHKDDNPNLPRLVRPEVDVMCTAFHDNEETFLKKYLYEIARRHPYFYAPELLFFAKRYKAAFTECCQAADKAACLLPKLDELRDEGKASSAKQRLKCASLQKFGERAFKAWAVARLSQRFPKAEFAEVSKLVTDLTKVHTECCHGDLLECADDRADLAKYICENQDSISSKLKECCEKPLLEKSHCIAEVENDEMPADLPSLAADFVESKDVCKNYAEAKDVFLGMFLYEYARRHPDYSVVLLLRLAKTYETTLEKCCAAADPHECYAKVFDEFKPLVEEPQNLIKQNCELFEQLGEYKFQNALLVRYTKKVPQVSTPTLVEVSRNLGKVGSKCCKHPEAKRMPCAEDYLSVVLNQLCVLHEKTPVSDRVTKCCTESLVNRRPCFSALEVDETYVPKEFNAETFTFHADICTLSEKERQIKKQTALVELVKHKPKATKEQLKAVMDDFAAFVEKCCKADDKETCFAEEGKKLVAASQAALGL
# protocol_text: biochemical
measurement_name: Kd (µM)
Could you give me the number in µM? Just the number is fine.

Note to self: Kd recorded for N[C@@H](Cc1c[nH]c2ccccc12)C(=O)O was 19.2
